target: Thyroid Receptor TRβ (Homo sapiens, UniProt P10828); experiment: Thyroid Receptor TRβ Agonist Assay (luciferase reporter gene, co-transfected HEK-293 cells); details: TRβ plasmid + thyroid hormone response element luciferase reporter in HEK-293 cells; 24 hours; maximum concentration 10 μM
Sequence (P10828 whole entry): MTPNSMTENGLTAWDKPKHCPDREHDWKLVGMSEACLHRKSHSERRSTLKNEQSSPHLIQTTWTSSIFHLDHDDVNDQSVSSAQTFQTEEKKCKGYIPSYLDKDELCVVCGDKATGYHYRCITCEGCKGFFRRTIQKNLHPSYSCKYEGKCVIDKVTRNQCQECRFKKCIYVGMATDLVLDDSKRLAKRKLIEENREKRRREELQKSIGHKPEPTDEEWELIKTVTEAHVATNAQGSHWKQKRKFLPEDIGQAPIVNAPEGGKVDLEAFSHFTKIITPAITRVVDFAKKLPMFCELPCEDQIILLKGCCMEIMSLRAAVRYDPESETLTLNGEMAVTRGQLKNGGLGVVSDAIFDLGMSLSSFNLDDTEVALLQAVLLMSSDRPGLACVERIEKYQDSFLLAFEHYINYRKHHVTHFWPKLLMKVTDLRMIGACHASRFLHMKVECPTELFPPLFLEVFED
Please respond with reported pEC50 for every item in the list.
One number for each entry, as −log10 of the molar value.

Some solved cases for reference:
{"cpd smiles": "O=C1CN(Cc2cc(Oc3c(Cl)cc(NC(=O)C(=O)NO)cc3Cl)ccc2O)CCN1", "pEC50": 5.02}
{"cpd smiles": "O=C(NO)C(=O)Nc1cc(Cl)c(Oc2ccc(O)c(Cc3ccccc3F)c2)c(Cl)c1", "pEC50": 7.21}
{"cpd smiles": "O=C(NO)C(=O)Nc1cc(Cl)c(Oc2ccc(O)c(Cc3cccc(F)c3)c2)c(Cl)c1", "pEC50": 7.02}
{"cpd smiles": "CN1CCN(Cc2cc(Oc3c(Cl)cc(NC(=O)C(=O)NO)cc3Cl)ccc2O)CC1", "pEC50": 5.06}
{"cpd smiles": "O=C(NO)C(=O)Nc1cc(Cl)c(Oc2ccc(O)c(CN3CCC(O)CC3)c2)c(Cl)c1", "pEC50": 5.19}
{"cpd smiles": "O=C(NO)C(=O)Nc1cc(Cl)c(Oc2ccc(O)c(CN3CCC(Cc4ccccc4)CC3)c2)c(Cl)c1", "pEC50": 6.21}

# map each compound to its pEC50
1. O=C(NO)C(=O)Nc1cc(Cl)c(Oc2ccc(O)c(CN3CCOCC3)c2)c(Cl)c1
2. CS(=O)(=O)c1ccc(Cc2cc(Oc3c(Cl)cc(NC(=O)C(=O)NO)cc3Cl)ccc2O)cc1

Solution:
[6.03, 6.60]
